The origin of these recorded values is ChEMBL document CHEMBL1201862.

Tested on: OVCAR-8
Assay: NCI tumour cell line growth inhibition, 48 h
Active and inactive are the calls of the source. Cut-off read from the data, not from the text of the source: active = GI50 up to about 1.1 µM and inactive = higher.
Could you please pick one outcome from this set? label 1 for active, label 0 for inactive

Field: example entries. Status: answers known.
• COc1cccc(C(=O)Nc2c3ccccc3nc3ccccc23)c1OC = label 0
• Cc1ccc2nc3c(C(=O)NCCN(C)C)cccc3nc2c1 = label 0

Prompt: Hi team, can someone confirm the assay call for NNC(=O)CC(=O)Nc1ccc(Cl)cc1 ?
Completion: label 0

Prompt: Hi team, can someone confirm the assay call for Cc1nc2c(N3CCCC3)nc(N3CCNCC3)nc2nc1NCc1ccccc1 ?
Completion: label 0

Prompt: Hi team, can someone confirm the assay call for COc1cc2c(c(OC)c1OC)-c1ccc(=O)c(O)cc1[C@@H](NC(C)=O)CC2 [COLCHICEINE] ?
Completion: label 0
